Target: DNA topoisomerase 2-alpha (Homo sapiens) (UniProt P11388)
Sequence (P11388 whole entry): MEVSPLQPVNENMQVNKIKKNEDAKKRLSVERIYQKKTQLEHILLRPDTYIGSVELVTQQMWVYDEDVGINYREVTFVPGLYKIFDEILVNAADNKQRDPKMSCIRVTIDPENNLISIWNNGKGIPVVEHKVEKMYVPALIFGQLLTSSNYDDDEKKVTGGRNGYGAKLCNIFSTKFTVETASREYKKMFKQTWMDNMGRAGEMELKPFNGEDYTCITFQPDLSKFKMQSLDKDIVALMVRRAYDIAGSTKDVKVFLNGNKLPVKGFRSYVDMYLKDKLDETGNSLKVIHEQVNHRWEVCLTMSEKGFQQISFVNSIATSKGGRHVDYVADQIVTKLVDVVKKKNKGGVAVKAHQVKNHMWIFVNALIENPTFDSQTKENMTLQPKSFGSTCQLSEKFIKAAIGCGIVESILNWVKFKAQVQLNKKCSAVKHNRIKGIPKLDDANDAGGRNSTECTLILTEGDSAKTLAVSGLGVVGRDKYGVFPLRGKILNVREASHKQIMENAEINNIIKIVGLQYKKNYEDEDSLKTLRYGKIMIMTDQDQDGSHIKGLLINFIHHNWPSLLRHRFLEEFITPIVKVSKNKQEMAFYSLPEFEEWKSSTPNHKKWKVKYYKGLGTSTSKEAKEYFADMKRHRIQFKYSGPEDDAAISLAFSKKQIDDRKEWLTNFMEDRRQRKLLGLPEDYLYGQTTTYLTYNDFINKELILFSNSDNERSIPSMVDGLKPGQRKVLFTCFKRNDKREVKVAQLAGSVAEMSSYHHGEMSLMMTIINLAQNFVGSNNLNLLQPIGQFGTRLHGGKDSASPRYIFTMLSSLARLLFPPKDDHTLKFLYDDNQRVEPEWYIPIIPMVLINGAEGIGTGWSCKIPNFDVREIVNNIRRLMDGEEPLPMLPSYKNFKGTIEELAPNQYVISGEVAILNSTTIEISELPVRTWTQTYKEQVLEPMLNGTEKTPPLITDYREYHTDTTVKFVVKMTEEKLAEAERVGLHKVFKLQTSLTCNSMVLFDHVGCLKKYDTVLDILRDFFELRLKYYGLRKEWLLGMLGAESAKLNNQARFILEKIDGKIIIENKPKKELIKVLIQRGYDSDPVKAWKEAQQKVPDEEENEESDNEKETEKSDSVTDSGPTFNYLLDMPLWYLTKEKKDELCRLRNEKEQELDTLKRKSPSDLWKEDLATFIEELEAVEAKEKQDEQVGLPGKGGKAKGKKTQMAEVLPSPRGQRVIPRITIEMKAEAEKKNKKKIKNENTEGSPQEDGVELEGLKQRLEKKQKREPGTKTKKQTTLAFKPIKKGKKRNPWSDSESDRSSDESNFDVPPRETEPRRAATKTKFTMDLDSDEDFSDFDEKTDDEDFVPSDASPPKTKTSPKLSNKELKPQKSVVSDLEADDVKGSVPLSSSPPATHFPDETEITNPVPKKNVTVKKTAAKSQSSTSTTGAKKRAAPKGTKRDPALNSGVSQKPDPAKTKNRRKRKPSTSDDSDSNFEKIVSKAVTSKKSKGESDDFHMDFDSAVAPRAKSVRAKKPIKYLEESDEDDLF
Test: Inhibition of human topoisomerase 2 at 100 uM
Assign class by inhibition: not lower than 10% means yes; lower than 10% means no.

// below: answered compounds
| compound | cat |
| --- | --- |
| O=c1c2ccccc2[nH]c2cc(OCC3CO3)cc(OCC3CO3)c12 (configuration not stated) | yes |
| O=c1c2ccccc2[nH]c2cc(OCC3CS3)cc(OCC3CS3)c12 (configuration not stated) | no |
| O=c1c2cccnc2oc2cc(OCC3CS3)cc(OCC3CS3)c12 (configuration not stated) | no |
| O=c1c2cccnc2oc2cc(OCC3CS3)cc(O)c12 (configuration not stated) | yes |
| O=c1c2cccnc2oc2cc(OCC3CO3)cc(O)c12 (configuration not stated) | yes |

Confirm if inhibition reported for the compound O=c1c2ccccc2[nH]c2cc(OCC3CO3)cc(O)c12 (configuration not stated) is 10% or above. yes

For O=c1c2ccccc2[nH]c2cc(OCC3CS3)cc(O)c12 (configuration not stated) then? no

###

Molecular target: DNA topoisomerase 1 (Homo sapiens)
Test: Inhibition of human topoisomerase 1 at 100 uM
reportedProperty: inhibition (%)
# value in %; strip the unit string

The following compounds have reported results that may help.
| compound | reportedProperty | val |
| --- | --- | --- |
| O=c1c2cccnc2oc2cc(OCC3CO3)cc(O)c12 (configuration not stated) | inhibition | 0 |
| O=c1c2ccccc2[nH]c2cc(OCC3CO3)cc(OCC3CO3)c12 (configuration not stated) | inhibition | 0 |
| O=c1c2cccnc2oc2cc(OCC3CS3)cc(O)c12 (configuration not stated) | inhibition | 50.3 |

Which inhibition value is on record for O=c1c2ccccc2[nH]c2cc(OCC3CS3)cc(OCC3CS3)c12 (configuration not stated) ? 0

Now consider O=c1c2cccnc2oc2cc(OCC3CS3)cc(OCC3CS3)c12 (configuration not stated) . 0

Ok, now O=c1c2ccccc2[nH]c2cc(OCC3CS3)cc(O)c12 (configuration not stated) 2.3

Lookup O=c1c2ccccc2[nH]c2cc(OCC3CO3)cc(O)c12 (configuration not stated) 9.1

###

Entries and their pIC50
Test system: MDA-MB-231
Experiment: Cytotoxicity against human MDA-MB-231 cells by MTT assay
Type: functional, cell-based
Counter-ions that a name gives are not always drawn.
By convention, pIC50 is the negative base-10 log of a molar concentration.

In the examples that follow, each entry is paired with its recorded pIC50.
| compound | reportedProperty | val |
| --- | --- | --- |
| COc1cc([C@@H]2c3cc4c(cc3[C@@H](O[C@@H]3O[C@@H]5CO[C@@H](C)O[C@H]5[C@H](O)[C@H]3O)[C@H]3COC(=O)[C@H]23)OCO4)cc(OC)c1O [ETOPOSIDE] | pIC50 | 5.46 |
| COc1cccc2c1C(=O)c1c(O)c3c(c(O)c1C2=O)C[C@@](O)(C(=O)CO)C[C@@H]3O[C@H]1C[C@H](N)[C@H](O)[C@H](C)O1 [DOXORUBICIN HYDROCHLORIDE] | pIC50 | 5.78 |
| O=c1c2cccnc2oc2cc(OCC3CS3)cc(OCC3CS3)c12 (stereo not given) | pIC50 | 4.89 |
| O=c1c2ccccc2[nH]c2cc(OCC3CS3)cc(O)c12 (stereo not given) | pIC50 | 4.67 |
| O=c1c2ccccc2[nH]c2cc(OCC3CO3)cc(OCC3CO3)c12 (stereo not given) | pIC50 | 4.54 |
| O=c1c2ccccc2[nH]c2cc(OCC3CO3)cc(O)c12 (stereo not given) | pIC50 | 4.73 |

Recorded pIC50 of CC[C@@]1(O)C(=O)OCc2c1cc1n(c2=O)Cc2cc3ccccc3nc2-1 [CAMPTOTHECIN] , please. 6.17

O=c1c2ccccc2[nH]c2cc(OCC3CS3)cc(OCC3CS3)c12 (stereo not given) ? 5.10

Another compound to look at: O=c1c2cccnc2oc2cc(OCC3CS3)cc(O)c12 (stereo not given) 4.74

// next record O=c1c2cccnc2oc2cc(OCC3CO3)cc(O)c12 (stereo not given) 4.61
